# System: PC-3 cells
# testSummary: Cell growth inhibition (sulforhodamine B assay), PC-3
# Type: cell-based
# measurementParameters: Homo sapiens, PC-3, 96 h; SRB assay, 4 days treatment
assayMetric: IC50 (µM)
Write it as a number; the unit µM goes unstated.

# IC50 lookup, item `C[C@@](O)(CBr)C(=O)Nc1ccc([N+](=O)[O-])c(C(F)(F)F)c1`
3.1

---

# Tested on: LNCaP cells
# testSummary: Cell growth inhibition (sulforhodamine B assay), LNCaP
# Assay type: cell-based, human
# measurementParameters: Homo sapiens, LNCaP; SRB assay, 4 days or 6 days treatment
assayMetric: IC50 (µM)
// return numeric value only (unit: µM, not printed)

Suppose we examine the compound `C[C@@](O)(CBr)C(=O)Nc1ccc([N+](=O)[O-])c(C(F)(F)F)c1` ; what IC50 value has been reported?
1.3
